Reported Percent Absorbed values for the following binders.
# target: Artificial Cell Surface (ACS): biotinylated cell surface proteins of PBMCs bound to streptavidin columns
# method.notes: Asp-N-digested dHSA adsorbed on ACS column, MALDI-TOF ms

| binder | Percent Absorbed / % |
| --- | --- |
| LAKYICENQDSISSKLKECCEKPLLEKHCIAEVEN [Asp-N-generated albumin fragment 283-319] | 100 |
| DRVTKCCTESLVNRRPCFSALEV [Asp-N-generated albumin fragment 495-517] | 87 |
| DSISSKLKECCEKPLLEKSHCIAEVEN [Asp-N-generated albumin fragment 293-319] | 65 |
| DHVKLVNEVTEFAKTCVA [Asp-N-generated albumin fragment 62-79] | 100 |
| DKLCTVATLRETYGEM [Asp-N-generated albumin fragment 96-112] | 65 |
| DDKETCFAEEGKKLVAASQAALGL [Asp-N-generated albumin fragment 586-609] | 100 |
| YSVVLLLRLAKTYETTLEKCCAAADPHECYAKVF [Asp-N-generated albumin fragment 364-398] | 100 |

// provenance: patent US20170298096A1
